test system: Ps. aeruginosa 56M; test: MIC, Agar (Mueller Hinton) Dilution Method; type: cell-based; details: Pseudomonas aeruginosa, Gram Negative
Structures can show the parent of a compound that is named as a salt.
MIC: recorded values
Answer in µg/mL, number only, no unit symbol.

Entry O=C(Cc1cccs1)N[C@@H]1C(=O)N2C(C(=O)O)=C(COC(=O)N3CCN(c4c(F)cc5c(=O)c(C(=O)O)cn(C6CC6)c5c4F)CC3)CS[C@H]12 ; MIC = 0.25

N#CCC(=O)N[C@@H]1C(=O)N2C(C(=O)O)=C(COC(=O)NC3CCN(c4c(F)cc5c(=O)c(C(=O)O)cn(C6CC6)c5c4F)C3)CS[C@H]12 (stereo partly shown) [Formula Ib, monosodium salt] yielded MIC of 0.25

Form field MIC, entry N#CCC(=O)N[C@@H]1C(=O)N2C(C(=O)O)=C(COC(=O)N[C@H]3CCN(c4c(F)cc5c(=O)c(C(=O)O)cn(C6CC6)c5c4F)C3)CS[C@H]12 [Formula Iba, monosodium salt] : 0.0625

More entries:
# MIC of N#CCC(=O)N[C@@H]1C(=O)N2C(C(=O)O)=C(COC(=O)N[C@@H]3CCN(c4c(F)cc5c(=O)c(C(=O)O)cn(C6CC6)c5c4F)C3)CS[C@H]12 [Formula Ibb, monosodium salt] = 0.25
